assay: Cell Viability - NIH 3T3 (AID 541); settings: NIH 3T3 cell viability, qHTS;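 further: cells exposed to compound for 40 hours; plate controls were DMSO alone for no effect and tamoxifen positive control for full effect; nearly all actives have a fitted effect of over 25% in size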
Records with an inconclusive call do not appear. Active and inactive are the calls of the source. The call rests on the fitted dose curve; in most records, active means well fitted cell-killing curve with a large enough effect; inconclusive means small, poorly fitted or top-dose-only effect; inactive means flat fitted curve, though single readings scatter.
Lab note: assign the record to one of yes (1) = active, no (0) = inactive

Observe how each entry below is paired with its result.
Tell me the recorded outcome of this test for Clc1ccc(C(Cl)(Cl)Cl)c(Cl)c1 . no (0)

Another molecule: O=[N+]([O-])c1cccc(O)c1 no (0)

And then CCCCCCCCCCCCCl , what is it? no (0)

Continuing:
Hello, I am checking results. What call was entered for Nc1ccc(-c2ccccc2)cc1 ? no (0)

Similarly, CCC#N ? no (0)

What do you have for CC(C)(OOC(C)(C)c1ccccc1)c1ccccc1 ? no (0)

Continue with ClCc1ccccn1 no (0)
